Value source: the supplement of paper PMC6555819

- Tested on: PPARa:RXRa (NR concentration 270 nM, RXRa partner concentration 90 nM)
- Method: PBM binding z-score (relative to random genomic background probes); higher = stronger binding; sequences stand for … in GC…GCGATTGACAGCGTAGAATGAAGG
The label depends only on PBM binding z-score: satisfied if it is at least 3, not satisfied if it is smaller.

Consider the following illustrative entries.
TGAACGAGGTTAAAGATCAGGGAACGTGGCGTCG; satisfied
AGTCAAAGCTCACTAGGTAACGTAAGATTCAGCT; not satisfied
TCTGCTAGGTCAACGATGGTCAGCTAATCTGCTA; satisfied
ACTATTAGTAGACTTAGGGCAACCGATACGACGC; not satisfied
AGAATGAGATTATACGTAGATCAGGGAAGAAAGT; not satisfied
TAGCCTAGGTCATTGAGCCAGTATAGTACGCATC; satisfied

Shifting focus to the sequence that follows.
Determine whether measured PBM binding z-score meets or exceeds 3 for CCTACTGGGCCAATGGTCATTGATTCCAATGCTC
not satisfied
